# Test system: wild oat
# Assay Text: Test B postemergence herbicide test
# Format: in vivo, Avena fatua
# Conditions Used: postemergence, 125 g ai/ha; visual rating, scale 0 (no effect) to 100 (complete control)
# Lookup of reported Oat, Wild plant response rating keyed by entry

Item Smiles: CCNC(=O)c1ccc(OC)c(NC(=O)c2cc(C(C)(C)C)nn2CC)n1
Measured Value: 10

The measured Oat, Wild plant response rating that "CCN(CC)C(=O)c1cc(NC(=O)c2cc(C(C)(C)C)nn2CC)c(F)cc1F" showed for wild oat is 20

The measured Oat, Wild plant response rating that "CCn1nc(C(C)(C)C)cc1C(=O)Nc1cccc2c1CCN(C1CC1)C2=O" showed for wild oat is 20

The measured Oat, Wild plant response rating that "C=Cn1nc(C(C)(C)C)cc1C(=O)Nc1cccc(C(C)=NO)c1" showed for wild oat is 10

The measured Oat, Wild plant response rating that "CCn1nc(C(C)(C)C)cc1C(=O)Nc1cc(C(=O)OC)cc(C)n1" showed for wild oat is 10

The measured Oat, Wild plant response rating that "CCn1nc(C(C)(C)C)cc1C(=O)Nc1cccc(SC(F)(F)F)c1" showed for wild oat is 40

###

# System: large crabgrass
# Assay Text: Test B pre-/postemergence herbicide test
# Assay type: in vivo, Digitaria sanguinalis
# Conditions Used: postemergence, 500 g ai/ha; scale 0 to 100, 0 is no effect, 100 is complete control
# Lookup of reported Crabgrass, Large plant response rating keyed by entry
The response must contain the number and no unit.

Item Smiles: CCn1nc(C(C)(C)C)cc1C(=O)Nc1cccc(C(=O)N2CCOCC2)n1
Crabgrass, Large plant response rating: 10

Item Smiles: CCNC(=O)c1ccc(F)c(NC(=O)c2nn(C(C)(C)CC)nc2CC)c1
Crabgrass, Large plant response rating: 10

Item Smiles: CCOC(=O)c1cccc(NC(=O)c2cc(C(C)(C)C)nn2C)n1
Crabgrass, Large plant response rating: 20

Item Smiles: CCn1nc(C(C)(C)C)cc1C(=O)Nc1cc(OC)ccc1OC
Crabgrass, Large plant response rating: 30

Item Smiles: C#CCOC(=O)c1cccc(NC(=O)c2cc(C(C)(C)C)nn2C)n1
Crabgrass, Large plant response rating: 0

Item Smiles: CCn1nc(C(C)(C)C)cc1C(=O)Nc1cc(C(=S)N(C)C)ccn1
Crabgrass, Large plant response rating: 50

Item Smiles: CCOC(=O)c1ccc(F)c(NC(=O)c2nn(C(C)(C)CC)nc2CC)c1
Crabgrass, Large plant response rating: 10

Item Smiles: CCc1nn(C(C)(C)C)cc1C(=O)Nc1ccc(F)c(C(=O)N(CC)CC)c1
Crabgrass, Large plant response rating: 20

Item Smiles: CCn1nc(C(C)(C)C)cc1C(=O)Nc1cc(OCCF)ccc1F
Crabgrass, Large plant response rating: 10

Below: the item to evaluate.
What the record says about "CCn1nc(C(C)(C)C)cc1C(=O)Nc1cncc(C(=O)N(C)C)c1" : Crabgrass, Large plant response rating is 0

###

# Tested on: barnyardgrass
# Assay Text: Test A pre-/postemergence herbicide test
# Assay type: in vivo, Echinochloa crus-galli
# Conditions Used: Postemergence, 2000 g ai/ha; 0 to 100 scale, 0 no effect, 100 complete control
# Lookup of reported Plant response rating, Barnyardgrass keyed by entry
The response must contain the number and no unit.

Recorded results for 2 molecules are shown here.
Item Smiles: CCNC(=O)c1cccc(NC(=O)c2sc(C(C)(C)C)nc2C)c1
Target Or System: barnyardgrass
Plant response rating, Barnyardgrass: 80

Item Smiles: CCNC(=O)c1cccc(NC(=O)c2sc(C(C)(C)C)nc2CC)c1
Target Or System: barnyardgrass
Plant response rating, Barnyardgrass: 80

What the record says about "C=CCN(C)C(=O)c1cccc(NC(=O)c2cc(C(C)(C)C)nn2CC)c1" : Plant response rating, Barnyardgrass is 80
